# TEST NAME: yeast display, Sf9 membrane polyspecificity reagent, FACS + sequencing; frameworks hold sequencing errors
OUTCOME MEASURE: polyreactivity (PSR sort gate)

- SEQUENCE INPUT: "QVQLVESGGGLVQAGGSLRLSCAASGRIFYYYAMGWYRPAPGKERELVAAINRDGGRTYYADSVKGRFTISRDNAKNTVYLQMNSLKPEDTAVYYCAASYGYVYTTSLDYWGQGTQVTVSS"
  polyreactivity (PSR sort gate): "low polyreactivity"
- SEQUENCE INPUT: "QVQLVESGGGLVQAGGSLRLSCAASGRIFPRNAMGWYRQAPGKERELVAAISSGGGGTYYADSVKGRFTISRDNAKNTVYLQMNSLKPEDTAVYYCNAAYTYVTAWYYYWGQGTQVTVSS"
  polyreactivity (PSR sort gate): "high polyreactivity"
- SEQUENCE INPUT: "QVQLVESGGGLDQAGGSLRLSCAASGRTFYRNVMGWYRQAHGKERELVAAISSRGGSTYYADSVKGRFTISRDNAKNTVYLQMNSLKPEDTAVYYCAAYYYRRRYGGKYDYWGQGTQVTVSS"
  polyreactivity (PSR sort gate): "high polyreactivity"
- SEQUENCE INPUT: "QVQLVESGGGLVQAGGSLRLSCAASGRILSHYAMGWYRQAPGKERELVASISGSDGSTYYADSVKGRFTISRDNAKNTVYLQMNSLKPEDTAVYYCAVDSYQTGVYFYYVYWDFDLGYWGQGTQVTVSS"
  polyreactivity (PSR sort gate): "low polyreactivity"
- SEQUENCE INPUT: "QVQLVESGGGLVQAGGSLRLSCASSGITLAGNAMGWYRQAPGKERELVAAISASGGRTSYADSVKGRFSISRDNAKNTVYLQKNSLKPEDTAVYYCNTRRYPTRPSYDYWGQGTQVTVSS"
  polyreactivity (PSR sort gate): "high polyreactivity"
- SEQUENCE INPUT: "QVQLVESGGGLVQAGGSLRLSCAASGRIFLRNAMGWFRQAPGKERELVAAIRGSGGSTYYADSVKRRFTISRDHAKTTVYLQTNSLKPEDTPVYYCAVASYYRYSHTYGYWGQGTQVTVSS"
  polyreactivity (PSR sort gate): "high polyreactivity"
- SEQUENCE INPUT: "QVQLVESGGGLVQAGGSLRLSCAASGRIFYFNGMGWYRQAPGKERELVASISASGDRTYYADSVKGRFTISRDNAKNTVYLQMNSLKPEDTAVYYCATDANTYTKYDYWGQGTQVTVSS"
  polyreactivity (PSR sort gate): "low polyreactivity"
- SEQUENCE INPUT: "QVQLVESGGGLVQAGGSLRLSCAASGITFYRNAMGWYRQAPGKEMELVAAITWNGGRTYYADSVKGRFTISRDNAKNTVYLQMNSLKPEDTAVYYCAADSGTRNLASYRYYYWGQATQVTVSS"
  polyreactivity (PSR sort gate): "low polyreactivity"

# get_value(readout='polyreactivity (PSR sort gate)', item= `QVQLVESGGGLVQAGGSLRLSCAASGRIFGFYAMGWYRQAPGKERELVAAITNGGSTYYADSVKGRFTISRDNAKNTVDLQMNSLKPEDTAVYYCNKGRQAHLHITMDYWGQGTQVTLSS` )
low polyreactivity

Same read-out for `QVQLVESGGGLVQAGGSLRLSCAASGSTLATYTMGWYRLAPGTVRELVGAISFGGSTYYADSVKGRFTISRDNAKNTVYLQMNSLKPVDTAVYYCAVDGDSYWGAYYYSDGYWGQGTQVTVSS` ?
low polyreactivity

Same read-out for `QVQLVESGGGLVQAGGSLRLSCAASGFTLSYYAMGWYRQAPGKERELVASISAIGGITYYADSVKGRFTISRDNAKNTVYLQMNSLKPEDTAVYYCARQGRRYRRFDSWGQGTKVTVSS` ?
high polyreactivity

Same read-out for `QVQLVESGGGLVQAGGSLRLSCAASGSIFYGYTMGWYRQEPGKERELVAAIRKSGGSTNYADSVKGRFTISRDNAKNNVYLQMNSLKPEDTAVYYCAAAYYRGRGYYWGQGTQVTVSS` ?
high polyreactivity

Same read-out for `QVQLVESGGGLVQAGGSLRLSCAASGRILYSYAMGWYRQAPGKEREFVAAIRRSGGSTYYADSVKGRFTISRDNAKNTVYLQMNSLKPEDTAVYYCAAGRRYSGSYDYWGQGTQVTVSS` ?
high polyreactivity

Same read-out for `QVQLVESGGGLVQAGGSLRLSCAASGLTFYGYVMGWYRHAPGKERELVASISRSGGRTYYADSVKGRFTISRDNAKNTVYLQMNSLKAEDTAVYYCGAGDQVGQEDDYWGQGTQGTVSS` ?
low polyreactivity

Same read-out for `QDQLVESGGGLVQAGGSLRLSCAATGRIFKLYAMGWYRQAPGKERELVAAISSSGTRTYYADSVKGRFTISRDNAKNTVYLHMNSMKPEDTAVYYCAKRWPRKGNYPGSDYWGQGTQVTVSS` ?
high polyreactivity

Same read-out for `QVQLVESGGCLVQAGGSLRLSCAASGGTFRGYAMGWYRQAPGKETELVAASSTSGSRTSYADSVKGRFTISRDNAKNTVYLQMNSLKPEDNAVYYCNADPIHGVYSRFRLGGYWGQGTQVTVSS` ?
high polyreactivity

Same read-out for `QVQLVESGGGLVQAGGSLRLSCAAYGRTSRRNAMGWYRQAPGKERELVAAINRTGGTTYYADYVKGRFTISRDNAKNTVYLQMNSLKPVVNAVYYCAAGAPLSTPRGTTYRYYYWGQGTQVTVSS` ?
high polyreactivity

Same read-out for `QVQLVESGGGLVQAGGRLRLSSAASGRIFTNYAMGWYRQAPGKERELVARISKRGGSTYYADSVKGRLTFSRDNAKNTVYLQMNSLKPEDTAVYYCNAVSNLYYYWGQGTQVTVSS` ?
high polyreactivity

Same read-out for `QVQLVESGGGLVQAGGSLRLSCAASGLTFYPNAMGWYRQAPGKERELVAGITSGGSTYYADSVKGRFTISRDNAKNTVYLQMNSLKPEDTAVYYCAAYYNFGDYEYDYWGQGTQVTVSS` ?
low polyreactivity

Same read-out for `QVQLVESGGGLVQAGGSLRLSCAASGSIFYFYAMGWYRQAPGKERELVAAITSGGSTYYADSVEGRFTISRDNAKNTVYLQMNSLKPEDTAVYYCAAQFYDLYHGTTYDYWGQGTQVTVSS` ?
high polyreactivity

Same read-out for `QVQLVESGGGLVQAGGSLRLSCAASGSTLYCNAMGWYRQAPGKERELVAAISRSGGSTYYADSVKGRFTISRDNAKKTVYLQMNSLKPEDTAVYYCAARRYVPHTEYYYWGQGTQGTVSS` ?
low polyreactivity
